# system name: benzodiazepine ω3 receptor (Rattus norvegicus)
# Construct: The kidney membrane fraction (ω3) was prepared as follows; from tissue; host or cells: rat (SD, male) kidney membrane fraction
# experimental details: Benzodiazepine ω3 receptor binding inhibition test ([3H]-PK-11195, rat kidney membrane fraction)
# condition label: 1 h, compound final concentration 100 nM, [3H]-PK-11195 1 nM, 4° C., one hour, read-out: [3H]-PK-11195 Binding inhibitory rate (%)
measurement type: inhibition at 0.1 µM (%)

> print(dat)
                                    compound  reported.measurement
 1  CN(C(=O)Cn1c(=O)n(C)c2cc(-c3ccccc3)ccc21)c1ccccc1 [Example 61]                   100
 2  CC(=O)c1cc(Br)cc2c1oc(=O)n2CC(=O)N(C)c1ccccc1 [Example 389]                    97
 3  CC(C(=O)N(C)c1ccccc1)n1c(=O)n2c3c(cc(Br)cc31)CCC2 (stereo not drawn) [Example 137]                    83
 4  CN(C(=O)Cn1c(=O)sc2ccc(-c3ccncc3)cc21)c1ccccc1 [Example 395]                    95
 5  CN(C(=O)Cn1c(=O)oc2ccc(C(=O)c3ccccc3)cc21)c1ccccc1 [Example 373]                    89
 6  CC(C)n1c(=O)n(CC(=O)N(C)c2ccccc2)c2cc(-c3ccccc3)ccc21 [Example 401]                    88
 7  CN(C(=O)Cn1c(=O)sc2ccc(Br)cc21)c1ccccc1 [Example 55]                    98
 8  CN(C(=O)C1CCc2cccc3c2n1c(=O)n3C)c1ccccc1 (stereo not drawn) [Example 142]                    83
 9  CCCN(CCC)C(=O)Cn1c(=O)n(C)c2ccc(-c3ccccc3)cc21 [Example 60]                   100
10  CN(C(=O)Cn1c(=O)n2c3c(cc(Oc4ccccc4)cc31)CCC2)c1ccccc1 [Example 136]                    95
11  CN(C(=O)Cn1c(=O)n2c3c(cccc31)CCC2)c1ccccc1 [Example 113]                    93
12  CN(C(=O)Cn1c(=O)sc2c(Br)cccc21)c1ccccc1 [Example 56]                    99
